target: 5-hydroxytryptamine receptor 2A (Homo sapiens, UniProt P28223)
Sequence (P28223 whole entry): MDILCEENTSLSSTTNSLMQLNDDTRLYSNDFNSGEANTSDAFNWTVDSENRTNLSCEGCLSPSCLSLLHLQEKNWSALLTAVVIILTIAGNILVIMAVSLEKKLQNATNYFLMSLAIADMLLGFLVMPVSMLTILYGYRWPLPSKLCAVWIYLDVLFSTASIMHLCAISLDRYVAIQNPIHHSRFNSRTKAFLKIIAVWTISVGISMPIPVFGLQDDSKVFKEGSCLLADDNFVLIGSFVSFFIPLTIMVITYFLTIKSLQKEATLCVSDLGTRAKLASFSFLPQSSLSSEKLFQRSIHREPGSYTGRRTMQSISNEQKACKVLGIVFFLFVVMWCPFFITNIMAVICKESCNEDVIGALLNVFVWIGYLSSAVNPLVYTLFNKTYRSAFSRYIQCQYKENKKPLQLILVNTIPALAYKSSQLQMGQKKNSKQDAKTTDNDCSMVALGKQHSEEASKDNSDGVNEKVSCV
resultType: IC50 (µM)
Provide the reading as a plain figure in µM.

Value lookup for IC50; key = "CCC[C@@H](CCO)Nc1nc(N)nc2cc(OC)ccc12"
1.78

---

experiment: Cmax in C57BL/6J mouse liver at 30 mg/kg, po by LC-MS analysis; type: ADME, organism-based; set-up: dose 30 mg/kg, route oral
resultType: Cmax (ng/g)
Provide the reading as a plain figure in ng/g.

Value lookup for Cmax; key = "CCC[C@@H](CCO)Nc1nc(N)nc2c(F)cccc12"
7610

---

assay: Cmax in C57BL/6J mouse plasma at 30 mg/kg, po by LC-MS analysis; assay type: ADME, organism-based; design: dose 30 mg/kg, route oral
resultType: Cmax
Give your result as the value with the unit written after it.

Value lookup for Cmax; key = "CCC[C@@H](CCO)Nc1nc(N)nc2c(F)cccc12"
813 ng/mL

---

assay: AUC (0 to last) in C57BL/6J mouse plasma at 10 mg/kg, po by LC-MS analysis; assay type: ADME, organism-based; parameters: dose 10 mg/kg, route oral, time 0 - last
resultType: AUC(0-t) (ng·h/mL)
Provide the reading as a plain figure in ng·h/mL.

Value lookup for AUC(0-t); key = "CCC[C@@H](CCO)Nc1nc(N)nc2c(F)cccc12"
141

---

experiment: Stability in cynomolgus monkey hepatocytes assessed compound turnover at 1 uM after 60 mins; format: ADME, cell-based, Macaca fascicularis, Hepatocyte; conditions: read-out: Drug metabolism
resultType: metabolised at 1 h, 1 µM
Give your result as the value with the unit written after it.

Value lookup for metabolised at 1 h, 1 µM; key = "CCC[C@@H](CCO)Nc1nc(N)nc2c(F)cccc12"
98%

---

assay: Intrinsic clearance in rat liver microsomes assessed per mg protein at 1 uM up to 60 mins; format: ADME, microsome; conditions: read-out: CLH
resultType: microsomal CLint at 1 µM (µL/min/mg)
Provide the reading as a plain figure in µL/min/mg.

Value lookup for microsomal CLint at 1 µM; key = "CCC[C@@H](CCO)Nc1nc(N)nc2c(F)cccc12"
24

---

test: Stability in dog hepatocytes assessed compound turnover at 1 uM after 60 mins; type: ADME, cell-based, Canis lupus familiaris, Hepatocyte; details: read-out: Drug metabolism
resultType: metabolised at 1 h, 1 µM (%)
Provide the reading as a plain figure in %.

Value lookup for metabolised at 1 h, 1 µM; key = "CCC[C@@H](CCO)Nc1nc(N)nc2c(F)cccc12"
77

---

assay: AUC in Sprague-Dawley rat at 10 mg/kg, po; type: ADME, organism-based; conditions: in vivo
resultType: AUC (ng·h/mL)
Provide the reading as a plain figure in ng·h/mL.

Value lookup for AUC; key = "CCC[C@@H](CCO)Nc1nc(N)nc2c(F)cccc12"
49

---

assay: Metabolic stability in mouse liver microsomes assessed as compound metabolized at 1 uM after 15 mins; assay type: ADME, microsome; settings: read-out: Drug metabolism
resultType: metabolised at 0.25 h, 1 µM (%)
Provide the reading as a plain figure in %.

// solved cases for metabolised at 0.25 h, 1 µM follow
1. CCC[C@@H](CCO)Nc1nc(N)nc2cccc(C)c12 :: 88
2. CCCC[C@@H](CCO)Nc1nc(N)nc2c(F)cccc12 :: 98

Value lookup for metabolised at 0.25 h, 1 µM; key = "CCCC[C@@H](CCO)Nc1nc(N)nc2ccccc12"
82

Value lookup for metabolised at 0.25 h, 1 µM; key = "CCC[C@@H](CCO)Nc1nc(N)nc2cc(C)ccc12"
87
